Test system: RPMI-8226 leukemia
Assay: NCI-60 one-dose screen, 48 h (100 = growth as untreated, 0 = no growth, -100 = all killed)
Details: 10 µM unless noted
Method: Growth inhibition of the RPMI-8226 human tumor cell line is measured as a screen for anti-cancer activity. Cells are grown in 96 well plates and exposed to the test compound for 48 hours. Compounds are tested at a single concentration, which is 10^-5 M for most compounds. The reported endpoint is percent growth (GI% or GIPRCNT), where numbers from 0 - 100% represent growth inhibition, and numbers from -100% - 0 represent cell death. For example, a value of 40 represents 60% growth inhibition. […]
About 83,000 compounds went through this panel and 20% of them were active in at least one assay; those are over-represented in the sample as a whole. The source made the active and inactive calls. The calls were made as follows: active = growth percent below 10; inactive = the rest.

COMPOUND: OCC(Nc1ncnc2ccc(-c3cnc4cnccn34)cc12)c1ccccc1 (stereo not given)
growth: 62.5% (inactive)
--
COMPOUND: O=C(CSc1nc2ccccc2c(=O)n1-c1ccc(S(=O)(=O)Nc2ccc(Cl)nn2)cc1)Nc1ccc(S(=O)(=O)Nc2ccc(Cl)nn2)cc1
growth: 108% (inactive)
--
COMPOUND: CC1CC(=O)C2=C(C1)Nc1ccc(Br)cc1CC2c1c[nH]c2ccc(Br)cc12 (stereo not given)
growth: 42.8% (inactive)
--
COMPOUND: CC(=C(c1ccc(OCCCN(C)C)cc1)c1ccc(OCCCN(C)C)cc1)c1ccc(Cl)cc1
growth: 79.3% (inactive)
--
COMPOUND: CCN(CC)S(=O)(=O)c1ccc(-c2nc(C(Cl)Cl)nc3cc(-c4ccc(F)cc4)nn23)cc1
growth: 6.42% (active)
